Provide the reported pIC50 of each item.
Target: hRIPK1 (aa 1-375) fusion protein (Homo sapiens)
Construct: hRIPK1 (aa 1-375) fusion protein
Sequence (Q13546 1-375): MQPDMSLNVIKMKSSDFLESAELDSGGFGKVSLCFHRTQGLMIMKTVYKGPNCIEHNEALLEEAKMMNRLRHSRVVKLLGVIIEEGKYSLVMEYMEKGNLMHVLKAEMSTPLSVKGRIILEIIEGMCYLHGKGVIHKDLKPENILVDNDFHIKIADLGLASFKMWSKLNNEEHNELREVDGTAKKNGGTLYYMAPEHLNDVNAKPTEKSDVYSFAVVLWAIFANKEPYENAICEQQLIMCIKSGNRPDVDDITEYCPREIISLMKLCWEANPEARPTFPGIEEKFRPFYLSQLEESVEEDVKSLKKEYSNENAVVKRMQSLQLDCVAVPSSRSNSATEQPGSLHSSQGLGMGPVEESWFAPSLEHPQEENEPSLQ
Assay: ADP-Glo kinase assay: catalytic activity of RIPK1 (autophosphorylation, conversion of ATP to ADP)
Give bare numbers, as −log10 of the molar value.

compound="Cc1cc([C@@H]2CCON2C(=O)[C@H]2CC[C@H](Cn3cc4ccc(C#N)cc4n3)CC2)co1 [compound 41]" quantitative_readout=7.52
compound="Cc1c(F)cc([C@@H]2CCON2C(=O)[C@H]2CC[C@H](Cc3cncc(C#N)c3C)CC2)cc1C#N [compound 287]" quantitative_readout=8.70
compound="COc1cncc([C@@H]2CCON2C(=O)[C@H]2CC[C@H](Cn3ncc4cc(C#N)ccc43)CC2)n1 [compound 217]" quantitative_readout=7.39

Now turn to the next compound.
Problem: Please give the measured pIC50 for this compound: N#Cc1cc(F)cc([C@@H]2CCON2C(=O)[C@H]2CC[C@H](Cc3ccc4ncnn4c3)CC2)c1 [compound 142]
Solution: 7.42

====

Molecular target: hRIPK1 (aa 1-375) fusion protein (Homo sapiens, UniProt Q13546)
Construct: hRIPK1 (aa 1-375) fusion protein
Assay: ADP-Glo kinase assay: catalytic activity of RIPK1 (autophosphorylation, conversion of ATP to ADP)
assay.readout: IC50 (nM)
Numbers only, in nM.

compound="Cc1ccc(C[C@H]2CC[C@H](C(=O)N3OCC[C@H]3c3cnc(C)c(F)c3)CC2)nn1 [compound 388]" assay_readout=IC50 quantitative_readout=97
compound="Cn1ncc2ncc(C[C@H]3CC[C@H](C(=O)N4OCC[C@H]4c4cc(F)cc(F)c4)CC3)cc21 [compound 297]" assay_readout=IC50 quantitative_readout=14
compound="NC(=O)c1ccc2cnn(C[C@H]3CC[C@H](C(=O)N4OCC[C@H]4c4ccccn4)CC3)c2c1 [Compound 230]" assay_readout=IC50 quantitative_readout=131
compound="O=C1NCc2ccc(C[C@H]3CC[C@H](C(=O)N4OCC[C@H]4c4cc(F)cc(F)c4)CC3)cc21 [compound 156]" assay_readout=IC50 quantitative_readout=16
compound="Cc1cn2ncc(C[C@H]3CC[C@H](C(=O)N4OCC[C@H]4c4cccc(C#N)c4)CC3)cc2n1 [compound 322]" assay_readout=IC50 quantitative_readout=37

Please go through the list and note IC50 for each compound.
1. N#Cc1cc(F)cc([C@@H]2CCON2C(=O)[C@H]2CC[C@H](Cn3cnc4cc(F)c(C#N)cc43)CC2)c1 [compound 13]
2. Cc1nc([C@@H]2CCON2C(=O)[C@H]2CC[C@H](Cc3ccc(C4(O)COC4)cc3)CC2)cs1 [compound 369]
3. Cc1nc2c(C)cc(C[C@H]3CC[C@H](C(=O)N4OCC[C@H]4c4cnc(C)c(F)c4)CC3)cn2n1 [compound 330]
4. N#Cc1cc(F)cc([C@@H]2CCON2C(=O)[C@H]2CC[C@H](Cn3ccc4ncc(O)cc43)CC2)c1 [compound 129]

Solution:
[33, 26, 20, 29]

Please go through the list and note IC50 for each compound.
1. N#Cc1cnc2cnn(C[C@H]3CC[C@H](C(=O)N4OCC[C@H]4c4cc(F)cc(F)c4)CC3)c2c1 [compound 26]
2. Cc1ccc(C[C@H]2CC[C@H](C(=O)N3OCC[C@H]3c3cnccn3)CC2)nn1 [compound 357]
3. N#Cc1cc(F)c2ccn(C[C@H]3CC[C@H](C(=O)N4OCC[C@H]4c4cc(F)cc(F)c4)CC3)c2c1 [compound 45]
4. NC(=O)c1cnc2cnn(C[C@H]3CC[C@H](C(=O)N4OCC[C@H]4c4cc(F)cc(F)c4)CC3)c2c1 [compound 79]
5. Cc1ncc(F)cc1C[C@H]1CC[C@H](C(=O)N2OCC[C@H]2c2cncc(C#N)c2)CC1 [compound 197]

Solution:
1: 20; 2: 138; 3: 18; 4: 22; 5: 24

Problem: Please give the measured IC50 for this compound: Cc1nc([C@@H]2CCON2C(=O)[C@H]2CC[C@H](Cn3ccc4ncc(C#N)cc43)CC2)cs1 [compound 198]
Solution: 17
